Test: Compound was tested for the backward reaction of conversion of vitamin D to previtamin D
Format: ADME
Reported Endpoint: k-1 (s⁻¹)
Answer with a number only, understood to be in s⁻¹.

So, "C=C1CC[C@H](O)C/C1=C/C=C1\CCC[C@@]2(C)[C@@H]1CC[C@@H]2[C@H](C)CCCC(C)(C)O" ? Its k-1 was 0.000845

* * *

Assay: Compound was tested for rate constant for the forward reaction of isomerization of previtamin D to vitamin D
Assay type: ADME
Reported Endpoint: k1
Answer with the value and then the unit.

Some compounds with known k1 results, for comparison:
| Compound | k1 |
| --- | --- |
| C=C1CC[C@H](O)C/C1=C/C=C1\CCC[C@]2(C)[C@@H]([C@H](C)CCCC(C)(C)O)CC[C@@H]12 [CALCIFEDIOL ANHYDROUS] | 0.000502 s⁻¹ |
| C=C1CC[C@H](O)C/C1=C/C=C1\CCC[C@@]2(C)[C@@H]1CC[C@@H]2[C@H](C)CCCC(C)(C)O | 4.92e-05 s⁻¹ |

Please turn your attention to the following entry.
Lookup result for "C=C1/C(=C\C=C2/CCC[C@]3(C)[C@@H]([C@H](C)CCCC(C)(C)O)CC[C@@H]23)C[C@@H](O)C[C@@H]1O" ; measured k1: 0.000563 s⁻¹
